# RUN_DESCRIPTION: Metabolic stability in rat hepatic microsomes
# Format: ADME
# CONDITION_INFO: liver microsomes, read-out: Stability
REPORTED_ENDPOINT: microsomal CLint (µL/min/mg)

Look over these answered cases.
compound_string=Cc1cccc(C)c1-c1cccc(COc2ccc(CCC(=O)O)cc2)c1 unit_spec=µL/min/mg result_value=34
compound_string=Cc1cc(OCCCN2CCCC2=O)cc(C)c1-c1cccc(COc2ccc(CCC(=O)O)c(F)c2)c1 unit_spec=µL/min/mg result_value=5

(I) Cc1cccc(C)c1-c1cccc(COc2ccc(CCC(=O)O)c(F)c2)c1
(II) CCS(=O)(=O)CCOc1cc(C)c(-c2cccc(COc3ccc(CCC(=O)O)c(F)c3)c2)c(C)c1
IN: Between the two listed entries I and II , which has its microsomal CLint at the higher number? Pick one and reply with its label.
OUT: I

----------
# System: HepG2
# RUN_DESCRIPTION: Induction of apoptosis in human HepG2 cells assessed as caspase 3/7 activity at 30 uM after 24 hrs by caspase Glo assay relative to staurosporine
# Type: cell-based
# CONDITION_INFO: hepg2, 24 h
Let's look at some molecules and their measured Activity.
Numeric only. Scale: %

compound_string=Cc1cc(OCC2(O)CCS(=O)(=O)CC2)cc(C)c1-c1cccc(COc2ccc(CCC(=O)O)c(F)c2)c1 unit_spec=% result_value=2.8
compound_string=CCS(=O)(=O)CCOc1cc(C)c(-c2cccc(CNc3ccc(CCC(=O)O)c(F)c3)c2)c(C)c1 unit_spec=% result_value=-0.9
compound_string=CCS(=O)(=O)CCOc1cc(C)c(-c2cccc(COc3ccc(CCC(=O)O)c(F)c3)c2)c(C)c1 unit_spec=% result_value=17.7

From here, focus on the item given below.
IN: Recall and state the measured Activity for Cc1cc(OC2CCOCC2)cc(C)c1-c1cccc(COc2ccc(CCC(=O)O)c(F)c2)c1 .
OUT: 42.8

----------
# TARGET_OR_SYSTEM: Free fatty acid receptor 1 (Homo sapiens, UniProt O14842)
# Sequence (O14842 whole entry): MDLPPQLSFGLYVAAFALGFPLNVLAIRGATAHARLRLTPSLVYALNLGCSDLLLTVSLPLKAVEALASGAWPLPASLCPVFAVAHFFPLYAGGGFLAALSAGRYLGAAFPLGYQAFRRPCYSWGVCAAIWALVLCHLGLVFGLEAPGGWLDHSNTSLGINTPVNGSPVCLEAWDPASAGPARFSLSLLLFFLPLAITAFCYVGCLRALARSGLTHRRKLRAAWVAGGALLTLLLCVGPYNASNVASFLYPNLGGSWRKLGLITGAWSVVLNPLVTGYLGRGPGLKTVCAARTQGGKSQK
# RUN_DESCRIPTION: Displacement of 3-[4-({2',6'-dimethyl-6-[(4-[3H])phenylmethoxy]biphenyl-3-yl}methoxy)phenyl] propanoic acid from human GPR40 receptor expressed in CHO cell membrane after 90 mins by liquid scintillation counting in the presence of 0.2% BSA
pKi: −log10 of the molar value.
REPORTED_ENDPOINT: pKi

Look over these answered cases.
compound_string=Cc1cc(OCc2ccccc2)cc(C)c1-c1cccc(COc2ccc(CCC(=O)O)cc2)c1 result_value=7.82
compound_string=CCS(=O)(=O)CCOc1cc(C)c(-c2cccc(CNc3ccc(CCC(=O)O)c(F)c3)c2)c(C)c1 result_value=7.70
compound_string=CCS(=O)(=O)CCOc1cc(C)c(-c2cccc(COc3ccc(CCC(=O)O)c(F)c3)c2)c(C)c1 result_value=7.82
compound_string=Cc1cc(OC2CCS(=O)(=O)CC2)cc(C)c1-c1cccc(CNc2ccc(CCC(=O)O)c(F)c2)c1 result_value=7.74

(a) Cc1cc(OCC2CC2)cc(C)c1-c1cccc(COc2ccc(CCC(=O)O)cc2)c1
(b) COc1cc(COc2ccc(CCC(=O)O)c(F)c2)cc(-c2c(C)cccc2C)c1
(c) COc1ccc(COc2ccc(CCC(=O)O)cc2)cc1-c1c(C)cccc1C
(d) COc1ccc(-c2c(C)cccc2C)cc1COc1ccc(CCC(=O)O)cc1
IN: Sort entries by pKi from minimum to maximum value. In your reply, arrange the labels in the requested order.
OUT: d, b, c, a

(1) CCOCCOc1cc(C)c(-c2cccc(COc3ccc(CCC(=O)O)cc3)c2)c(C)c1
(2) CCOCCOc1cc(C)c(-c2cccc(COc3ccc(CCC(=O)O)c(F)c3)c2)c(C)c1
IN: Identify the entry with the smaller pKi: 1 or 2 . Pick one and reply with its label.
OUT: 1
(1: 7.64, 2: 7.92)

----------
# TARGET_OR_SYSTEM: Free fatty acid receptor 1 (Homo sapiens)
# RUN_DESCRIPTION: Agonist activity at human GPR40 receptor expressed in CHO cells assessed as increase in intracellular calcium level for 90 secs by FLIPR assay in the presence of 0.1% BSA
REPORTED_ENDPOINT: EC50 (nM)

Look over these answered cases.
compound_string=COc1ccc(COc2ccc(CCC(=O)O)cc2)cc1-c1c(C)cccc1C reported_endpoint=EC50 result_value=20
compound_string=Cc1cccc(C)c1-c1cccc(COc2ccc(CCC(=O)O)cc2)c1C reported_endpoint=EC50 result_value=40
compound_string=Cc1cc(OCCCN2CCCC2=O)cc(C)c1-c1cccc(COc2ccc(CCC(=O)O)c(F)c2)c1 reported_endpoint=EC50 result_value=32
compound_string=Cc1cc(OCC2(O)CCS(=O)(=O)CC2)cc(C)c1-c1cccc(COc2ccc(CCC(=O)O)c(F)c2)c1 reported_endpoint=EC50 result_value=15
compound_string=Cc1cc(OC2CCS(=O)(=O)CC2)cc(C)c1-c1cccc(COc2ccc(CCC(=O)O)c(F)c2)c1 reported_endpoint=EC50 result_value=25

(I) Cc1cc(OCc2ccccc2)cc(C)c1-c1cccc(COc2ccc(CCC(=O)O)cc2)c1
(II) CCS(=O)(=O)CCOc1cc(C)c(-c2cccc(CNc3ccc(CCC(=O)O)c(F)c3)c2)c(C)c1
IN: Identify the entry with the smaller EC50: I or II . Pick one and reply with its label.
OUT: I

----------
# RUN_DESCRIPTION: Lipophilicity, log D of the compound by RP-HPLC analysis
# Type: physicochemical
REPORTED_ENDPOINT: logD

compound_string=Cc1cc(OC2CCS(=O)(=O)CC2)cc(C)c1-c1cccc(CNc2ccc(CCC(=O)O)c(F)c2)c1 result_value=2.44

(P) COc1cc(COc2ccc(CCC(=O)O)c(F)c2)cc(-c2c(C)cccc2C)c1
(Q) Cc1cc(OCC2(O)CCS(=O)(=O)CC2)cc(C)c1-c1cccc(CNc2ccc(CCC(=O)O)c(F)c2)c1
IN: Identify the entry with the smaller logD: P or Q . Pick one and reply with its label.
OUT: Q

----------
# System: HepG2
# RUN_DESCRIPTION: Induction of apoptosis in human HepG2 cells assessed as caspase 3/7 activity at 10 uM after 24 hrs by caspase Glo assay relative to staurosporine
# Format: cell-based
# CONDITION_INFO: hepg2, 24 h
REPORTED_ENDPOINT: Activity (%)
Numeric only. Scale: %

compound_string=CCS(=O)(=O)CCOc1cc(C)c(-c2cccc(COc3ccc(CCC(=O)O)c(F)c3)c2)c(C)c1 unit_spec=% result_value=-1.1

IN: Recall and state the measured Activity for Cc1cc(OC2CCS(=O)(=O)CC2)cc(C)c1-c1cccc(COc2ccc(CCC(=O)O)c(F)c2)c1 .
OUT: -0.5

IN: Recall and state the measured Activity for Cc1cc(OC2CCS(=O)(=O)CC2)cc(C)c1-c1cccc(CNc2ccc(CCC(=O)O)c(F)c2)c1 .
OUT: -0.5

IN: Recall and state the measured Activity for Cc1cc(OC2CCOCC2)cc(C)c1-c1cccc(COc2ccc(CCC(=O)O)c(F)c2)c1 .
OUT: 0.9

----------
# TARGET_OR_SYSTEM: Free fatty acid receptor 1 (Rattus norvegicus)
# RUN_DESCRIPTION: Displacement of 3-[4-({2',6'-dimethyl-6-[(4-[3H])phenylmethoxy]biphenyl-3-yl}methoxy)phenyl] propanoic acid from rat GPR40 receptor expressed in CHO cell membrane after 90 mins by liquid scintillation counting in the presence of 0.2% BSA
REPORTED_ENDPOINT: Ki (nM)

Look over these answered cases.
compound_string=Cc1cccc(Oc2cc(C)c(-c3cccc(COc4ccc(CCC(=O)O)c(F)c4)c3)c(C)c2)n1.Cl result_value=6.7
compound_string=CCS(=O)(=O)CCOc1cc(C)c(-c2cccc(CNc3ccc(CCC(=O)O)c(F)c3)c2)c(C)c1 result_value=4.5
compound_string=Cc1cc(OCc2ccccc2)cc(C)c1-c1cccc(COc2ccc(CCC(=O)O)cc2)c1 result_value=6.7

(A) Cc1cc(OC2CCS(=O)(=O)CC2)cc(C)c1-c1cccc(COc2ccc(CCC(=O)O)c(F)c2)c1
(B) Cc1cccc(C)c1-c1cccc(COc2ccc(CCC(=O)O)c(F)c2)c1
(C) COc1ccc(COc2ccc(CCC(=O)O)cc2)cc1-c1c(C)cccc1C
IN: Reorder: Ki, max to min. In your reply, arrange the labels in the requested order.
OUT: C, B, A
(C: 87 nM, B: 36 nM, A: 6.4 nM)

----------
# TARGET_OR_SYSTEM: Free fatty acid receptor 1 (Rattus norvegicus, UniProt Q8K3T4)
# Sequence (Q8K3T4 whole entry): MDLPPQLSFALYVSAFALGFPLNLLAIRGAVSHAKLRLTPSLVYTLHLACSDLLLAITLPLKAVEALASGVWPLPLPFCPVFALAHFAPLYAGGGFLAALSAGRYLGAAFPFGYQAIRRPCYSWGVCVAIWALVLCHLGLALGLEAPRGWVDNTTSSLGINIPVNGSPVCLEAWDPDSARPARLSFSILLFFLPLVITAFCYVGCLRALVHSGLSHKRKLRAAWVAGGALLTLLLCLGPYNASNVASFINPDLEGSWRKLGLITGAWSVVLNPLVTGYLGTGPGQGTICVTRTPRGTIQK
# RUN_DESCRIPTION: Displacement of 3-[4-({2',6'-dimethyl-6-[(4-[3H])phenylmethoxy]biphenyl-3-yl}methoxy)phenyl] propanoic acid from rat GPR40 receptor expressed in CHO cell membrane after 90 mins by liquid scintillation counting in the presence of 0.2% BSA
REPORTED_ENDPOINT: Ki (nM)

compound_string=Cc1cc(OCC2(O)CCS(=O)(=O)CC2)cc(C)c1-c1cccc(CNc2ccc(CCC(=O)O)c(F)c2)c1 reported_endpoint=Ki unit_spec=nM result_value=4.5
compound_string=CCOCCOc1cc(C)c(-c2cccc(CNc3ccc(CCC(=O)O)c(F)c3)c2)c(C)c1.Cl reported_endpoint=Ki unit_spec=nM result_value=6.2
compound_string=COc1cc(C)c(-c2cccc(COc3ccc(CCC(=O)O)cc3)c2)c(C)c1 reported_endpoint=Ki unit_spec=nM result_value=6.2
